Data provenance is ChEMBL document CHEMBL2331513.

Organism: Homo sapiens
assay method text: Selectivity ratio of Ki for human CB1 receptor to Ki for human CB2 receptor
property: Ratio Ki

Worked cases, answers included:
INSERT INTO assay_data (mol_smiles, property, recorded_result) VALUES
  ('CCN(CC)c1ccc(CN(c2ccccc2)S(=O)(=O)c2ccc(C(C)C)cc2)cc1', 'Ratio Ki', 66),
  ('CCN(CC)c1ccc(CN(Cc2ccco2)S(=O)(=O)c2ccc(C(C)C)cc2)cc1', 'Ratio Ki', 42),
  ('CCN(CC)c1ccc(CN(CC2CCCCC2)S(=O)(=O)c2ccc(C)cc2)cc1', 'Ratio Ki', 16),
  ('CCN(CC)c1ccc(CN(C2CCCCC2)S(=O)(=O)c2ccc(C)cc2)cc1', 'Ratio Ki', 12),
  ('CCN(CC)c1ccc(CN(Cc2cccs2)S(=O)(=O)c2ccc(C)cc2)cc1', 'Ratio Ki', 44),
  ('CCN(CC)c1ccc(CN(Cc2ccccc2)S(=O)(=O)c2ccc(C(C)C)cc2)cc1', 'Ratio Ki', 7),
  ('CCN(CC)c1ccc(CN(C2CCCCC2)S(=O)(=O)c2ccc(OC)cc2)cc1', 'Ratio Ki', 9),
  ('CCN(CC)c1ccc(CN(Cc2ccco2)S(=O)(=O)c2ccc(C)cc2)cc1', 'Ratio Ki', 60);

1: CCN(CC)c1ccc(CN(c2ncc(C)s2)S(=O)(=O)c2ccc(C)cc2)cc1
2: CCN(CC)c1ccc(CN(Cc2ccccc2)S(=O)(=O)c2ccc(C)cc2)cc1
3: CCN(CC)c1ccc(CN(Cc2ccccc2)S(=O)(=O)c2ccc(Cl)cc2)cc1
4: CCN(CC)c1ccc(CN(Cc2ccccc2)S(=O)(=O)c2ccc(F)cc2)cc1
5: CCN(CC)c1ccc(CN(Cc2ccccc2)S(=O)(=O)c2ccc(OC)cc2)cc1
Please give the order of these molecules when sorted by Ratio Ki, largest value leading. // format: requested-order list of labels
2, 1, 5, 4, 3

1: CCN(CC)c1ccc(CN(Cc2ccco2)S(=O)(=O)c2ccc(OC)cc2)cc1
2: C=CCN(Cc1ccc(N(CC)CC)cc1)S(=O)(=O)c1ccc(C)cc1
Which of these two has the smaller recorded Ratio Ki: 1 or 2 ? Returns: label corresponding to the selected item.
2
(2: 19, 1: 42)
